- tested system: bovine cardiac myosin (Bos taurus (Bovine))
- Sequence (Q9BE39 whole entry): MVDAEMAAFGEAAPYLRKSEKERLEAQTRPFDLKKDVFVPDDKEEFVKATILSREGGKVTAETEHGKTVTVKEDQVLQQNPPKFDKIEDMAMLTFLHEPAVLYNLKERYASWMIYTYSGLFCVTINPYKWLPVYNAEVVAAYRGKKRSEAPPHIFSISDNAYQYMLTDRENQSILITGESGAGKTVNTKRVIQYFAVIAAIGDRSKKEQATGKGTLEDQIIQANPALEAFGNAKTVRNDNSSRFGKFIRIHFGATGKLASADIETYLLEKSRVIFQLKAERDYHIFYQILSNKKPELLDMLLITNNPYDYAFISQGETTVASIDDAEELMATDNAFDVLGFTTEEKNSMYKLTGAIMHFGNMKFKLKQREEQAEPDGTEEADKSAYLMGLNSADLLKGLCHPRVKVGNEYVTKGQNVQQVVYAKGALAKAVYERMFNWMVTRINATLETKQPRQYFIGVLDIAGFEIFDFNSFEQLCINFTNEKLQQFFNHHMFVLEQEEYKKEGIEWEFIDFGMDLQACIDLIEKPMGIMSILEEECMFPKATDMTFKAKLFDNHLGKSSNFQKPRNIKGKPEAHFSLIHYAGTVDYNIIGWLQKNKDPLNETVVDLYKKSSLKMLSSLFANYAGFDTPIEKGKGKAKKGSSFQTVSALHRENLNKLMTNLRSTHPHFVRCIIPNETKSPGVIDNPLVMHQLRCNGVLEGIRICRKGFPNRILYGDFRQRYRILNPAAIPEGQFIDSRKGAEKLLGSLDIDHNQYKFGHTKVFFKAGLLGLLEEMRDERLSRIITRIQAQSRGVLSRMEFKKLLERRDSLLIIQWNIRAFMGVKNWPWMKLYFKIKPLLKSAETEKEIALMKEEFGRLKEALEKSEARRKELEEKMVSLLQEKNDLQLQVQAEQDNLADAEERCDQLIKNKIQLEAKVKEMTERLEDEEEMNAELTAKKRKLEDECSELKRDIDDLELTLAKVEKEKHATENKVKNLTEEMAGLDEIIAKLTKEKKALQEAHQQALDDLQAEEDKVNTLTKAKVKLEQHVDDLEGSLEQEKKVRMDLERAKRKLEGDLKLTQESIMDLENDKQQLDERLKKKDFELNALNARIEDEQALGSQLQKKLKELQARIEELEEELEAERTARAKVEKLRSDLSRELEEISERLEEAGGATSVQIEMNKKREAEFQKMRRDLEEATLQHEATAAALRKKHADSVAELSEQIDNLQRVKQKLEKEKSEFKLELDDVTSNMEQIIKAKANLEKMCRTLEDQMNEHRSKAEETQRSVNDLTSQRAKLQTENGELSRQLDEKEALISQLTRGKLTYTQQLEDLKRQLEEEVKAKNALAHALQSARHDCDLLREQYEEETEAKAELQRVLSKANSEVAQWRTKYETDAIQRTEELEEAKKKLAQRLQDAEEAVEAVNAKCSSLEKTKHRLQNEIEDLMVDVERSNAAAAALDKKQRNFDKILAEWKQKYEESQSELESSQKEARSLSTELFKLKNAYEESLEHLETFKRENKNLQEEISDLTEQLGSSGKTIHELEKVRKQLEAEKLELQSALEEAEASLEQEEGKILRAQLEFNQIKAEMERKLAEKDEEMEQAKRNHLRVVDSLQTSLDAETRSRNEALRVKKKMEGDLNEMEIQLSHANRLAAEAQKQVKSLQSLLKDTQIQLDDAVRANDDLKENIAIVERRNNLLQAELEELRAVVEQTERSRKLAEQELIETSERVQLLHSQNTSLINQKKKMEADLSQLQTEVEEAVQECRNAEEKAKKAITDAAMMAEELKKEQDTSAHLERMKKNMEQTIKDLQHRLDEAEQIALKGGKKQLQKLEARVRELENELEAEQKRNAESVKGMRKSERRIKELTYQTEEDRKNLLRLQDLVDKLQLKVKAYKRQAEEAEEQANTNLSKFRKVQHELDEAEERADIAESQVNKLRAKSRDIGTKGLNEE
- Sequence (P85100 whole entry partner): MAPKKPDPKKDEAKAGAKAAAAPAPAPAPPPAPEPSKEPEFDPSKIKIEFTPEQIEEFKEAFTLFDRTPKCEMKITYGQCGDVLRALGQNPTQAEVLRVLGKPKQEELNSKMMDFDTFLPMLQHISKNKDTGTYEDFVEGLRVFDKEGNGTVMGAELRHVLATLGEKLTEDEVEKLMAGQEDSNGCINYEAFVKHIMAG
- Sequence (Q3SZE5 whole entry partner): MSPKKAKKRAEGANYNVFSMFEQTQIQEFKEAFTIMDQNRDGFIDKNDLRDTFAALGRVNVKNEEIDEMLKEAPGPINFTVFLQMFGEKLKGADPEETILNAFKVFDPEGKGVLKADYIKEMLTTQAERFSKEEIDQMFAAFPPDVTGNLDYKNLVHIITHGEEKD
- measurement notes: Myosin inhibitory potency: PK/LDH-coupled ATPase assay on bovine skinned cardiac myofibrils
- study conditions: pCa=6.25, 50 μM ATP, 25° C., read-out: myosin inhibition activity IC50
Please go through the items and note down their log10 IC50.
The common logarithm of IC50 in nM is what is listed.

What measured log10 IC50 goes with CC(Nc1nc(=O)n(C2CCOCC2)c(=O)[nH]1)c1ccc(O)cc1 (centres unmarked) ?
4.15

`CC(C)n1c(=O)nc(NCCC2CCCCC2)[nH]c1=O` , same question.
3.63

And the next one, `C[C@H](Nc1nc(=O)n(CC(F)(F)F)c(=O)[nH]1)c1ccc(OC(F)(F)F)cc1` ?
3.90

// repeat for `C[C@H](Nc1nc(=O)n(-c2ccccn2)c(=O)[nH]1)C1CCCCC1` and report
3.87

Now try `CC(C)Oc1ccc([C@H](C)Nc2nc(=O)n(C3CCOCC3)c(=O)[nH]2)cc1` .
3.03

And for `CC(C)c1cccc([C@H](C)Nc2nc(=O)n(C3CCOCC3)c(=O)[nH]2)c1` ?
3.00

Please give the result for `COc1ccc([C@H](C)Nc2nc(=O)n(C3CCOCC3)c(=O)[nH]2)cc1` too.
3.05

Follow-up item: `CO[C@@H]1COCC[C@H]1n1c(=O)nc(N[C@@H](C)c2cccc(C)c2)[nH]c1=O`
3.07

====

Kindly state IC50 for each of the entries shown.
- tested system: bovine cardiac myosin (Bos taurus (Bovine))
- measurement notes: Myosin inhibitory potency: PK/LDH-coupled ATPase assay on bovine skinned cardiac myofibrils
- study conditions: pCa=6.25, 50 μM ATP, 25° C., read-out: myosin inhibition activity IC50
- Experimental: The average rates of ATPase inhibition, and the IC50 values are determined by Victor Nivo multimode plate reader (PerkinElmer, USA). As to the assays background, a biochemical assay couples the ATPase activity of bovine cardiac myosin to an enzymatic coupling system consisting of pyruvate kinase and lactate dehydrogenase (PK/LDH) and monitoring the absorbance decrease of NADH (at 340 nm) as a function of time to measure the inhibitory ability of small molecule agents. […]
Give the value in nM but do not write nM after it.

Could you tell me which IC50 is on file for `C[C@H](Nc1nc(=O)n(C2CCOCC2)c(=O)[nH]1)c1ccc(Cl)c(Cl)c1` ?
200

Now the compound `C[C@H](Nc1nc(=O)n([C@@H]2CCOC[C@@H]2F)c(=O)[nH]1)c1cccc(C(F)(F)F)c1`
1610

Same again, this time with C=Cc1ccc(C(C)Nc2nc(=O)n(C3CCOCC3)c(=O)[nH]2)cc1 (stereo not drawn)
6790

Input Cc1cccc([C@H](C)Nc2nc(=O)n(C3CCOC(C)C3)c(=O)[nH]2)c1 (stereo partly drawn)
5410

Similarly, `C[C@H](Nc1nc(=O)n([C@H]2CCOC[C@H]2F)c(=O)[nH]1)c1ccc(F)cc1F` ?
2260

Can you check CC(O)c1cccc([C@H](C)Nc2nc(=O)n(C3CCOCC3)c(=O)[nH]2)c1 (stereo partly drawn) next?
1500

Next up: `CC(=O)N1CCC(n2c(=O)nc(N[C@@H](C)C3CCCCC3)[nH]c2=O)CC1`
2650

Now this one: `C[C@H](Nc1nc(=O)n([C@H]2CC[C@@H](O)CC2)c(=O)[nH]1)C1CCCCC1`
4780

Please give the result for `Cc1cccc([C@H](C)Nc2nc(=O)n(C3CCCCC3)c(=O)[nH]2)c1` too.
8030

Queued: `Cc1ccc(F)c([C@H](C)Nc2nc(=O)n([C@@H](C3CC3)C(F)(F)F)c(=O)[nH]2)c1`
1440

Entry `C[C@H](Nc1nc(=O)n(C2CCOCC2)c(=O)[nH]1)c1cccc(C2CCNCC2)c1` please
1950

// repeat for `CO[C@H]1CC[C@@H](n2c(=O)nc(N[C@@H](C)C3CCCCC3)[nH]c2=O)CC1` and report
5770

Entry to check: Cc1cccc(C(C)Nc2nc(=O)n(C3CCOCC3)c(=O)[nH]2)c1 (stereo not drawn)
240

Okay, and `C[C@H](Nc1nc(=O)n(C2CCOCC2)c(=O)[nH]1)C1CCCCC1` ?
2450

Continue with `C[C@@H](Nc1nc(=O)n(C2CCOCC2)c(=O)[nH]1)c1cccc(C2CC2)c1`
1220

Request: `C[C@H](Nc1nc(=O)n([C@H]2CC[C@H](O)CC2)c(=O)[nH]1)C1CCCCC1`
4280

Same for `COc1cc([C@H](C)Nc2nc(=O)n(C3CCOCC3)c(=O)[nH]2)ccc1F`
910

Try `C[C@H](Nc1nc(=O)n(C2CCOCC2)c(=O)[nH]1)c1ccccc1` next.
3900

Now this one: `Cc1cccc([C@H](C)Nc2nc(=O)n(C3CCN(C(C)C)CC3)c(=O)[nH]2)c1`
1290

Can you handle CC(Nc1nc(=O)n(C2CCOCC2)c(=O)[nH]1)c1ccccc1C(F)(F)F (stereo not drawn) next?
230

For O=c1nc(NC(c2ccccc2)C(F)F)[nH]c(=O)n1C1CCOCC1 (stereo not drawn) then?
7640

Also check C[C@H](Nc1nc(=O)n(C2CCNC(=O)C2)c(=O)[nH]1)C1CCCCC1 (stereo partly drawn)
13200

For `C[C@H](Nc1nc(=O)n(C2CCOCC2)c(=O)[nH]1)c1cccc(N2CCOCC2)c1` then?
3800

Now try `C[C@H](Nc1nc(=O)n(C2CCOCC2)c(=O)[nH]1)c1cccc(-c2cc[nH]n2)c1` .
1670

Likewise for CC(C)n1c(=O)nc(N[C@@H](C)c2cccc([C@H](C)O)c2)[nH]c1=O [Example 342] ?
2070

Here is the next compound: `C[C@H](Nc1nc(=O)n(C2CCOCC2)c(=O)[nH]1)c1cccc(N2CC(C)(C)C2)c1`
3400

Then this compound: `Cc1ccc([C@H](C)Nc2nc(=O)n(C3CCOCC3)c(=O)[nH]2)cc1F`
1050

What about Cc1ccc(C(C)Nc2nc(=O)n(C3CCOCC3)c(=O)[nH]2)cc1 (stereo not drawn) ?
3640

Next compound: `Cc1n[nH]cc1-c1cccc([C@H](C)Nc2nc(=O)n(C3CCOCC3)c(=O)[nH]2)c1`
5710

Please do the same for CC(C)n1c(=O)nc(N[C@@H](C)c2cccc([C@H](C)O)c2)[nH]c1=O [Example 343] as well.
1510

Entry `Cc1cccc([C@H](C)Nc2nc(=O)n([C@@H]3CCOC[C@@H]3F)c(=O)[nH]2)c1` please
1470

Continue with `Cc1cccc([C@H](C)Nc2nc(=O)n(C3CCCC3)c(=O)[nH]2)c1`
1750

Now the compound `C[C@H](Nc1nc(=O)n(C2CCOCC2)c(=O)[nH]1)c1cccc(-c2cnn(C)c2)c1`
820
